Reference source: PubChem BioAssay (NCI)

Test system: U251 CNS
method summary: NCI-60 one-dose screen, 48 h
setup conditions: 10 µM unless noted
The panel holds about 83,000 compounds, 20% with a hit somewhere; the sample as a whole holds those more often. Activity calls are given as the source filed them. Rule for the calls: active = growth percent below 10; inactive = the rest.
Hi there, use one of these labels in your reply, thanks! YES for active, NO for inactive

Prompt: Assay outcome for `O=c1oc2ccc(I)cc2c(=O)n1-c1ccc(F)cc1F` : what was it?
Completion: YES

Prompt: In this assay, the call recorded for `CCC(C)(C)C(=O)O[C@H]1C[C@@H](C)C=C2C=C[C@H](C)[C@H](CC[C@@H]3CC=CC(=O)O3)[C@H]21` was what?
Completion: NO

Prompt: Which outcome was entered for the compound `N[C@@H](CC/[N+]([O-])=N/O)C(=O)O` in this test?
Completion: NO

Prompt: What did the test return for Cc1ccccc1CNC(=O)C1CN(c2ccc(Cl)cc2)N(c2ccc(Cl)cc2)C1=O (centres undefined) ?
Completion: NO

Prompt: Hello, I am checking results. What call was entered for `O=S1(=O)N(Cc2ccccc2)[C@@H](Cc2ccccc2)[C@H](O)[C@H](O)[C@H](Cc2ccccc2)N1Cc1ccccc1` ?
Completion: YES

Prompt: What is the recorded call for this compound in the test? Cc1ccc(S(=O)c2ccc([N+](=O)[O-])c3nonc23)cc1 (centres undefined)
Completion: NO

Prompt: // outcome(item) with item = `COc1cccc(/C=C/C(=O)c2c(C)nc3ccccc3c2/C=C/c2ccccc2)c1OC`
Completion: NO

Prompt: Look up the recorded call for `O=Cc1c(OCc2cnnn2CC(=O)Nc2ccc(Cl)cc2)ccc2ccccc12` in this test.
Completion: NO

Prompt: Which result was noted for this compound in the test: `c1ccc2c(c1)oc1cc3sccc3nc12`
Completion: NO
